protocol.details: SH-SY5Y neuroblastoma cell toxicity (MTT assay)
test.parameters: human, SH-SY5Y neuroblastoma cells
measure.name: CC50 at 48 h (µM)
Give the value, in units of µM, as a plain number.

Value of CC50 at 48 h reported for the compound C=CC(C(C)=O)=P(c1ccccc1)(c1ccccc1)c1ccccc1 is 7.31

====

system.under.test: MMP-2 (Homo sapiens)
Sequence (P08253 110-660): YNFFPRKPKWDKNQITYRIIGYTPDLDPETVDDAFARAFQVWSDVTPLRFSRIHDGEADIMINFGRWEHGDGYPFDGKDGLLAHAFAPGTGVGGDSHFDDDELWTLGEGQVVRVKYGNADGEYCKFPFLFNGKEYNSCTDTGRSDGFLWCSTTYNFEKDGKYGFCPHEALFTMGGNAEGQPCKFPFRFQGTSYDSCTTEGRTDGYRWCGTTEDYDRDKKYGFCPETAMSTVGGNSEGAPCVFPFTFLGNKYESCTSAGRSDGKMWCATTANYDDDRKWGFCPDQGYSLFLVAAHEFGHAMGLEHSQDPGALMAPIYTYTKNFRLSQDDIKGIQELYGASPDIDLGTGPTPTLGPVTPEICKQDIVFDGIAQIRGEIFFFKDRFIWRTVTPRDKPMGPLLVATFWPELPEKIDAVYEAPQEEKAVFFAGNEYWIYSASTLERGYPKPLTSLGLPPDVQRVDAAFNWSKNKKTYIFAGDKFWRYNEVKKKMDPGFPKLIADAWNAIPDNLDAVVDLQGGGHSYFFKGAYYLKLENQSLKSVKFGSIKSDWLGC
measure.name: IC50 (nM)
Record the value in nM, omitting the unit from your answer.

Lab note: C=CC(C(C)=O)=P(c1ccccc1)(c1ccccc1)c1ccccc1 gave IC50 of 724
